Data provenance: ChEMBL document CHEMBL3616389

target: UniProt P14920; experiment: Inhibition of human recombinant DAO expressed in Escherichia coli BL21(DE3) using D-Asp and D-Ala assessed as 2-oxo acid production after 10 mins by colorimetric assay
Sequence (P14920 whole entry): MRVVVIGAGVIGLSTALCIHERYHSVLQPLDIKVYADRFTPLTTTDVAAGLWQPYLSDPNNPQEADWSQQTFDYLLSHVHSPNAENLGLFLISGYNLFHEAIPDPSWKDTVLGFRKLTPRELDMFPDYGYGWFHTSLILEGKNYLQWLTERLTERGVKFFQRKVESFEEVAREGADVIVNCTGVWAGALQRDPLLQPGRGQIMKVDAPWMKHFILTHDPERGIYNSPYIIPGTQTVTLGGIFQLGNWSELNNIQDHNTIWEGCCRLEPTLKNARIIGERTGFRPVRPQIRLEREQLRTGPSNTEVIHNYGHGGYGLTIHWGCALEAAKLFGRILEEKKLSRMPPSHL
pIC50: −log10 of the molar value.
Readout type: pIC50

Please review the following examples before continuing.
* Cc1ccc(C(=O)O)c(O)n1 | < 2.00
* Nc1ccnc(C(=O)O)c1 | < 4.00

// pIC50 lookup, key: `O=C(O)c1cncc(O)c1`
< 2.00

pIC50 for `Nc1cccc(C(=O)O)n1` ?
< 4.00

// returns reported pIC50 for input `Nc1cccnc1C(=O)O`
< 3.00

Given `Nc1ccncc1C(=O)O` , state its recorded pIC50.
< 4.00

Which pIC50 reading was recorded for the compound `O=C(O)CC(=O)O` ?
< 2.00

pIC50 lookup needed for `Nc1cc(C(=O)O)ccn1` , thanks.
< 4.00

What value of pIC50 has been reported for the following compound? `Nc1ccc(C(=O)O)nc1`
< 2.00

Dear colleague, I am looking for the recorded pIC50 of the following compound: `Nc1ccc(C(=O)O)cn1`
< 2.60

Fill in the blank: the reported pIC50 of `Nc1cncc(C(=O)O)c1` is ____.
< 2.60

Recorded pIC50 for `Nc1ncccc1C(=O)O` , please?
< 3.00
